- Procedure text: Antibiotic concentrations in porcine oral fluid after intramuscular application (UHPLC-MS/MS)
- Assay type: in vivo
- Test parameters: male, (Landrace × Yorkshire) × Duroc crossbred (DanBred sows), pig, intramuscular; oral fluid, pigs, i.m., time 19 d, posttreatment; read-out: Avarage Concentrations in oral fluid
Please respond with reported concentration at 19 d for every item in the list.
Give bare numbers, in ng/mL.

Recorded results for 4 compounds are shown here.
Chemical structure: COc1ncnc(NS(=O)(=O)c2ccc(N)cc2)c1OC
Unit info: ng/mL
concentration at 19 d: 58.4
//
Chemical structure: CCC[C@@H]1C[C@@H](C(=O)N[C@@H]([C@H]2O[C@H](SC)[C@H](O)[C@@H](O)[C@H]2O)[C@@H](C)O)N(C)C1
Unit info: ng/mL
concentration at 19 d: 279
//
Chemical structure: C=C[C@]1(C)C[C@@H](OC(=O)CSCCN(CC)CC)[C@]2(C)[C@H](C)CC[C@]3(CCC(=O)[C@H]32)[C@@H](C)[C@@H]1O
Unit info: ng/mL
concentration at 19 d: 202
//
Chemical structure: CC[C@H]1OC(=O)C[C@@H](O)[C@H](C)[C@@H](O[C@@H]2O[C@H](C)[C@@H](O[C@H]3C[C@@](C)(O)[C@@H](O)[C@H](C)O3)[C@H](N(C)C)[C@H]2O)[C@@H](CC=O)C[C@@H](C)C(=O)/C=C/C(C)=C/[C@@H]1CO[C@@H]1O[C@H](C)[C@@H](O)[C@@H](OC)[C@H]1OC
Unit info: ng/mL
concentration at 19 d: 16.1

q: Value lookup for concentration at 19 d; key = `COc1cc(Cc2cnc(N)nc2N)cc(OC)c1OC`
a: 42
